All figures here come from paper PMC9482650.

- TARGET DESC: Inadl_10, Q8NI35
- Sequence (Q8NI35 1673-1763): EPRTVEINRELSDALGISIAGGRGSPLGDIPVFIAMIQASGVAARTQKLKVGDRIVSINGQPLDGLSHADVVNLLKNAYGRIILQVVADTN
- ASSAY NAME: holdup assay
- Parameters: key: below the threshold = too weak to quantify, mostly under pKd 3.1 to 4
- ASSAY SETUP: plain residues with an end cap or a label only (N-terminal biotin on a linker: ahx)
MEASURED PROPERTY: pKd

Here is how some binders turned out for pKd.
TVICWPGSLV [LNX2, Q8N448]: 4.03
RRRKRKRTYL [HPV49-L2, P36762]: below the threshold
ESLLLGPSNF [SHROOM4, Q9ULL8]: below the threshold
SDSSGQEYSL [KCTD3, Q9Y597]: below the threshold
LSDPSVSTVV [GRIN1, Q05586;Q05586-2]: below the threshold
NRKREIFSNF [NHERF2, Q15599]: below the threshold
GYDWGPATDL [TJP3, O95049]: 3.62
HNAFLSVTTV [PDZRN4, Q6ZMN7]: 3.57

Go through the list and state pKd for each entry.
1. PSASCAVTAA [PDLIM4, P50479;P50479-2]
2. RAVEEEESRF [PSCDBP, O60759]

Reply:
1: below the threshold; 2: below the threshold
